From: patent US9930890B2

- assay.setup: pH 7.8
Consider the following molecules; for each one, report its logp [b].

Cc1cc(C(F)F)nn1CC(=O)N1CCC(c2nc(C3=NOC(c4ccccc4OS(C)(=O)=O)C3)cs2)CC1 (racemic) [I-51]    2.61[b]

Provide reported logp [b] for each item, in the same order as listed.
1. Cc1ccc(S(=O)(=O)Oc2ccccc2C2(C)CC(c3csc(C4CCN(C(=O)Cn5nc(C(F)F)cc5C)CC4)n3)=NO2)cc1 (racemic) [I-49]
2. N#CCOc1ccc(Cl)cc1C1CC(c2csc(C3CCN(C(=O)Cn4nc(C(F)F)cc4C(F)F)CC3)n2)=NO1 (racemic) [I-58]
3. O=C(Oc1ccccc1C1CC(c2csc(C3CCN(C(=O)Cn4nc(C(F)F)cc4C(F)F)CC3)n2)=NO1)c1ccccc1F (centres unmarked) [I-130]
4. Cc1cc(C(F)(F)F)nn1CC(=O)N1CCC(c2nc(C3=NOC(c4c(F)cccc4OCC#N)C3)cs2)CC1 (centres unmarked) [I-86]

["3.9[b]", "3.23[b]", "3.58[b]", "2.94[b]"]

Provide reported logp [b] for each item, in the same order as listed.
1. N#CCOc1cccc(C2CC(c3csc(C4CCN(C(=O)Cn5nc(C(F)F)cc5C(F)F)CC4)n3)=NO2)c1 (centres unmarked) [I-110]
2. CS(=O)(=O)Oc1cccc(Cl)c1C1CC(c2csc(C3CCN(C(=O)Cn4nc(C(F)F)cc4C(F)F)CC3)n2)=NO1 (centres unmarked) [I-102]
3. CSCOc1ccccc1C1CC(c2csc(C3CCN(C(=O)Cn4nc(C(F)(F)F)cc4C)CC3)n2)=NO1 (centres unmarked) [I-120]

["2.88[b]", "3.09[b]", "3.59[b]"]
